# test system: Pancreatic Lipase (Sus scrofa, UniProt P00591)
# Construct: purchased Sigma L-3126
# Sequence (P00591 whole entry): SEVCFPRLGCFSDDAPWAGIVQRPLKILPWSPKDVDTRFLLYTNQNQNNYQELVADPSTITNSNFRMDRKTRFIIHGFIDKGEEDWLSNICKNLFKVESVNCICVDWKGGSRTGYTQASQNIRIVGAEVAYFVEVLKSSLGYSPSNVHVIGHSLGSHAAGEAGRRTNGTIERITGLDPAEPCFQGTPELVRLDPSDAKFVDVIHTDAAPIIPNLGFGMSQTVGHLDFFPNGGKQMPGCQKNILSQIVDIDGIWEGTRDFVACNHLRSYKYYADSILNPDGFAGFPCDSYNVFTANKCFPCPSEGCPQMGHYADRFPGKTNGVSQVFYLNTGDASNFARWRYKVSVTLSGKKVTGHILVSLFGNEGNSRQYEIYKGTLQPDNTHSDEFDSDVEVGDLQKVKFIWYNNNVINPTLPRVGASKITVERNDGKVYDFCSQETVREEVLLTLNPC
# assay remarks: Pancreatic lipase inhibition assay (p-nitro phenol palmitate substrate, 96-well)
# Format: biochemical
# condition parameters: pancreatic lipase, compound 200 μM, 37° C., OD 405 nm
# Method: Preparation of test samples: Structures #2-#19 were dissolved in 1 mL DMSO to obtain a 10 mM stock solution, and were vortexed to dissolution and stored at 4° C. The various concentration of working samples were prepared in 0.2 M phosphate buffer, pH-8.0. […] Lipase assay: Lipase assay was performed by method described by Winkler and Stuckmann, 1979, with modification. […] The reaction mixture was incubated at 37° C. and optical density was measured at 405 nm after incubation. […]
observable: inhibition at 200 µM (%)
Give the quantity in %, number only.

Examples from the recorded data:
[[record]]
compound = "CCCCCCCCCCCC1=C(OC(=O)c2cccc(F)c2)C(=O)C=C(OC(=O)c2cccc(F)c2)C1=O [Structure #2]"
observable = "inhibition at 200 µM"
reading = 97.9

[[record]]
compound = "CCCCCCCCCCCC1=C(OC(=O)c2cccc(Br)c2)C(=O)C=C(OC(=O)c2cccc(Br)c2)C1=O [Structure #6]"
observable = "inhibition at 200 µM"
reading = 100

[[record]]
compound = "CCCCCCCCCCCC1=C(OC(=O)c2ccc(OC)cc2)C(=O)C=C(OC(=O)c2ccc(OC)cc2)C1=O [Structure #18]"
observable = "inhibition at 200 µM"
reading = 94.1

[[record]]
compound = "CCCCCCCCCCCC1=C(OC(=O)c2ccc(Br)cc2)C(=O)C=C(OC(=O)c2ccc(Br)cc2)C1=O [Structure #10]"
observable = "inhibition at 200 µM"
reading = 97

[[record]]
compound = "CCCCCCCCCCCC1=C(OC(=O)c2cccc(OC)c2)C(=O)C=C(OC(=O)c2cccc(OC)c2)C1=O [Structure #17]"
observable = "inhibition at 200 µM"
reading = 96.5

[[record]]
compound = "CCCCCCCCCCCC1=C(OC(=O)c2cccc(Cl)c2)C(=O)C=C(OC(=O)c2cccc(Cl)c2)C1=O [Structure #7]"
observable = "inhibition at 200 µM"
reading = 100


Here is another compound to look at.
Looking up CCCCCCCCCCCC1=C(OC(=O)c2ccc(Cl)cc2)C(=O)C=C(OC(=O)c2ccc(Cl)cc2)C1=O [Structure #9] , I see its inhibition at 200 µM listed as 100

----------
# test system: Pancreatic Lipase (Sus scrofa, UniProt P00591)
# Construct: purchased Sigma L-3126
# assay remarks: Pancreatic lipase inhibition assay (p-nitro phenol palmitate substrate, 96-well)
# Assay type: biochemical
# condition parameters: pancreatic lipase, compound 200 μM, 37° C., OD 405 nm
observable: inhibition at 200 µM

[[record]]
molecule = "CCCCCCCCCCCC1=C(OC(=O)c2ccccc2Br)C(=O)C=C(OC(=O)c2ccccc2Br)C1=O"
observable = "inhibition at 200 µM"
reading = "100%"

[[record]]
molecule = "CCCCCCCCCCCC1=C(OC(=O)c2cccc([N+](=O)[O-])c2)C(=O)C=C(OC(=O)c2cccc([N+](=O)[O-])c2)C1=O"
observable = "inhibition at 200 µM"
reading = "98%"

[[record]]
molecule = "CCCCCCCCCCCC1=C(OC(=O)c2ccccc2I)C(=O)C=C(OC(=O)c2ccccc2I)C1=O"
observable = "inhibition at 200 µM"
reading = "100%"

[[record]]
molecule = "CCCCCCCCCCCC1=C(OC(=O)c2ccccc2F)C(=O)C=C(OC(=O)c2ccccc2F)C1=O"
observable = "inhibition at 200 µM"
reading = "100%"

[[record]]
molecule = "CCCCCCCCCCCC1=C(OC(=O)c2ccccc2)C(=O)C=C(OC(=O)c2ccccc2)C1=O"
observable = "inhibition at 200 µM"
reading = "100%"


Looking up CCCCCCCCCCCC1=C(OC(=O)c2ccc(C(C)(C)C)cc2)C(=O)C=C(OC(=O)c2ccc(C(C)(C)C)cc2)C1=O , I see its inhibition at 200 µM listed as 99.2%

Looking up CCCCCCCCCCCC1=C(O)C(=O)C=C(O)C1=O [Structure #20, 2,5-Dihydroxy-3-undecyl-p-benzoquinone, reference compound] , I see its inhibition at 200 µM listed as 69.5%

Looking up CCCCCCCCCCCC1=C(OC(=O)c2ccccc2Cl)C(=O)C=C(OC(=O)c2ccccc2Cl)C1=O , I see its inhibition at 200 µM listed as 100%

----------
# test system: Pancreatic Lipase (Sus scrofa)
# Construct: purchased Sigma L-3126
# assay remarks: Pancreatic lipase inhibition assay (p-nitro phenol palmitate substrate, 96-well)
# Type: biochemical
# condition parameters: pancreatic lipase, compound 200 μM, 37° C., OD 405 nm
observable: inhibition at 200 µM (%)
Give the quantity in %, number only.

[[record]]
compound = "CCCCCCCCCCCC1=C(OC(=O)c2cccc(C)c2)C(=O)C=C(OC(=O)c2cccc(C)c2)C1=O [Structure #13]"
reading = 100

[[record]]
compound = "CCCCCCCCCCCC1=C(OC(=O)c2ccc(C)cc2)C(=O)C=C(OC(=O)c2ccc(C)cc2)C1=O [Structure #12]"
reading = 99.1

[[record]]
compound = "CCCCCCCCCCCC1=C(OC(=O)c2ccc(F)cc2)C(=O)C=C(OC(=O)c2ccc(F)cc2)C1=O [Structure #16]"
reading = 100


Here is another compound to look at.
Looking up CCCCCCCCCCCC1=C(OC(=O)c2ccccc2[N+](=O)[O-])C(=O)C=C(OC(=O)c2ccccc2[N+](=O)[O-])C1=O [Structure #14] , I see its inhibition at 200 µM listed as 61.3
